assay: NCI Yeast Anticancer Drug Screen. Data for the sgs1 strain (AID 173);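 further: 0% = growth of vehicle-only control cultures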; conditions: S. cerevisiae sgs1 mutant, at 100.0 µM, hits give high values
This is part of a sample that, as a whole, favours compounds with a hit. Of some 79,000 tested, about 15% had one in any assay.
observation-type: growth inhibition (%)
One number for each entry, in %.

INSERT INTO measurements (compound, observation_type, result_units, value_observed) VALUES
  ('CCOC(=O)c1cnc2c(C(F)(F)F)cccc2c1N=[N+]=[N-]', 'growth inhibition', '%', 97),
  ('COc1ccc2c(c1)C(=O)c1ccccc1C2', 'growth inhibition', '%', 1),
  ('O=C(CCCN1CCC(O)(c2ccc(Cl)cc2)CC1)c1ccc(F)cc1', 'growth inhibition', '%', 52);

I need growth inhibition for every entry listed below, if you could help.
1. Cc1cc(N=Nc2ccc(S(=O)(=O)[O-])cc2)cc(C(=O)[O-])c1[O-].NC1CCCCC1N.[Na+].[Pt+4]
2. O=[N+]([O-])c1ccc(=S)[nH]c1
3. O=C([O][Sn]([O]C(=O)c1ccccc1)([c]1ccccc1)[c]1ccccc1)c1ccccc1
4. CN1CCc2ccccc2C1Cc1ccccc1NC(=O)c1sc2ccccc2c1Cl (stereo not given)
5. CCCc1cc(C(=O)OCC)cc(CCC)c1O
6. CCC(=O)Oc1c(Cl)cc(Cl)c2ccccc12

1. 99
2. 99
3. 84
4. 89
5. 95
6. 43

Form field: reported growth inhibition of CNC(=O)OCc1c(COC(=O)NC)c(-c2ccc(Cl)c(Cl)c2)n2c1CCC2
97

----------
test: NCI Yeast Anticancer Drug Screen. Data for the wt1 strain (AID 149);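 further: 0% = growth of vehicle-treated wt1 cultures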; conditions: S. cerevisiae wt1 strain (SPY 50644) growth inhibition; at 33.0 µM; hits give high values
About 79,000 compounds went through this panel and 15% of them were active in at least one assay; those are over-represented in the sample as a whole. Activity calls are given as the source filed them. Rule as the data show it: active = growth inhibition above about 70%; inactive = the rest.
observation-type: growth inhibition

INSERT INTO measurements (compound, observation_type, value_observed) VALUES
  ('CCCCCCCCCCCCCCCCCCOCC(O)COP(=O)(O)OCC1OC(n2cc(F)c(=O)[nH]c2=O)CC1O (configuration not stated)', 'growth inhibition', '16% (inactive)'),
  ('O=[N+]([O-])c1ccc(=S)[nH]c1', 'growth inhibition', '13% (inactive)'),
  ('Cc1[nH]c2ccccc2c1C(c1ccc(N)cc1)c1c(C)[nH]c2ccccc12', 'growth inhibition', '-1% (inactive)');

Please give growth inhibition for each item listed below.
1. Cc1c(C2=C(Br)C(=O)N(C)C2=O)c(=O)n(C)c(=O)n1C
2. Brc1ccc(-c2cc3c(cc2C2SCCS2)OCO3)cc1
3. CCOc1ccc2c(c1)c(CC(=O)O)cn2C
4. C#CCCCc1ccccc1

["35% (inactive)", "-14% (inactive)", "28% (inactive)", "-9% (inactive)"]

----------
experiment: NCI Yeast Anticancer Drug Screen. Data for the CLN2oe strain (AID 163);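 further: 0% = growth of vehicle-only control cultures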; settings: S. cerevisiae CLN2oe strain, at 1.2 µM, hits give high values
This is part of a sample that, as a whole, favours compounds with a hit. Of some 79,000 tested, about 15% had one in any assay.
Would you mind telling me the reported growth inhibition of each entry?
Give bare numbers, in %.

INSERT INTO assay_data (compound, result_units, value_observed) VALUES
  ('O=C(CCCN1CCC(O)(c2ccc(Cl)cc2)CC1)c1ccc(F)cc1', '%', 27),
  ('CC(C)=CC(=O)O[C@@H]1CC(C)(C)CC2C3=CCC4[C@]56CC[C@](O)(OC5)C(C)(C)C6CC[C@@]4(C)C3(C)CC[C@]21C(=O)O (some centres undefined)', '%', -5),
  ('CSC(=S)Nc1cccc(C)n1', '%', -24),
  ('O=C(Nc1ccccc1)C(=O)C(C(=O)c1ccccc1)C(c1ccccc1)c1ccccc1 (centres undefined)', '%', 5),
  ('C/C(=N\O)C1CC2C=C(C#N)C1N(Cc1ccccc1)C2 (centres undefined)', '%', -5),
  ('FC(F)(F)c1cc(NC(=S)N2c3ccccc3-n3cccc3C2c2cccnc2)cc(C(F)(F)F)c1 (centres undefined)', '%', -3);

// each compound listed below needs its growth inhibition
1. CCC(=O)c1cccc2ccccc12
2. CC(C)NC(=O)OCc1c(COC(=O)NC(C)C)c(-c2ccc(Cl)c(Cl)c2)n2c1CCC2
3. c1ccc2c(c1)-c1nc3ccccc3cc1C2N1CCOCC1 (centres undefined)

[-7, 4, -6]

----------
experiment: NCI Yeast Anticancer Drug Screen. Data for the bub3 strain (AID 167); settings: S. cerevisiae bub3 mutant strain, at 33.0 µM
The panel holds about 79,000 compounds, 15% with a hit somewhere; the sample as a whole holds those more often. The source made the active and inactive calls. Cut-off read from the data, not from the text of the source: active = growth inhibition above about 70%; inactive = the rest.
Tick one outcome: true for active, false for inactive

Worked cases, answers included:
INSERT INTO results (molecule, category) VALUES
  ('Clc1ccc(SC(/C=C/NNC2=NC(c3ccccc3)C(c3ccccc3)=NN2)c2ccccc2)cc1 (stereo not given)', 'false'),
  ('Cc1ccc(NC(=O)/C(Cl)=C(\Cl)C(=O)O)cc1C', 'true'),
  ('O=C1NC(=O)C2C3C=CC(C3)C12 (stereo not given)', 'false'),
  ('Cn1ccnc1Oc1ccc(Cl)cc1', 'false'),
  ('COc1ccc2nc3cccc([N+](=O)[O-])c3c(NCCN(CCO)CCO)c2c1', 'false');

What did the test return for CC(CC(C)(C)[N+](C)(C)C)[N+](C)(C)C (stereo not given) ?
false

Then this molecule: O=C(/C=C\c1ccc(Cl)cc1Cl)c1cccs1
false

And the next one, CCC[CH2][Ge]([CH2]CCC)([CH2]CCC)[O]C(=O)C(OC)c1ccccc1 (stereo not given) ?
false

----------
assay: NCI Yeast Anticancer Drug Screen. Data for the mgt1 strain (AID 153); conditions: S. cerevisiae mgt1 mutant growth inhibition; at 33.0 µM; hits give high values
Compounds without any hit were thinned out: in the full panel of roughly 79,000, 15% have a hit.
observation-type: growth inhibition (%)
Give bare numbers, in %.

INSERT INTO assay_data (compound, observation_type, value_observed) VALUES
  ('O=C(NCCCCNCCCNC(=O)c1cc(-c2ccccc2)nc2ccccc12)c1cc(-c2ccccc2)nc2ccccc12', 'growth inhibition', 59),
  ('CCOc1ccc2c(c1)c(CC(=O)O)cn2C', 'growth inhibition', 18);

Would you be so kind as to report growth inhibition for each listed record?
1. O=[N+]([O-])c1ccc(=S)[nH]c1
2. CC(C)(Br)C(=O)/C=C/c1ccc(Cl)c(Cl)c1

34
0

----------
assay: NCI Yeast Anticancer Drug Screen. Data for the rad50EPP+ strain (AID 151);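 further: 0% = growth of vehicle-treated control cultures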; details: S. cerevisiae rad50 mutant strain, at 3.7 µM, hits give high values
Compounds without any hit were thinned out: in the full panel of roughly 79,000, 15% have a hit.
observation-type: growth inhibition (%)
One number for each entry, in %.

// known answers, use as guide
INSERT INTO results (compound, value_observed) VALUES
  ('COC1=CC(=O)C2C(C1=O)C(c1ccc(Cl)cc1)[C@@H]2C (some centres undefined)', 64),
  ('Cc1nn(-c2cc(Cl)ccc2[N+](=O)[O-])c(C)c1Cl', 8),
  ('CCN(CC)C(=S)N/N=C(/C)c1cccc(/C(C)=N\NC(=S)N(CC)CC)n1', 6);

I'd like to know its growth inhibition. The compound in question is O=[N+]([O-])c1ccc2nc3ccccc3cc2c1
63

----------
experiment: NCI Yeast Anticancer Drug Screen. Data for the rad18 strain (AID 177); conditions: S. cerevisiae rad18 mutant growth inhibition; at 1.2 µM; hits give high values
The panel holds about 79,000 compounds, 15% with a hit somewhere; the sample as a whole holds those more often.
Returns one of y or n; y when growth inhibition is >= -10%.

INSERT INTO assay_data (molecule, category) VALUES
  ('COCCOC(=O)CCn1cc(F)c(=O)[nH]c1=O', 'y'),
  ('O=[N+]([O-])CC(SCc1ccccc1)c1ccc2c(c1)OCO2 (stereo not given)', 'y'),
  ('O=C1Nc2ccccc2/C1=C/COc1ccccc1', 'y');

Tell me whether growth inhibition is at least -10% here: CC(=O)Oc1ccc2c(c1)Cc1cc(N=C3C=CC(=O)O3)ccc1-2
y

Also CNC(=O)OCc1c(COC(=O)NC)c(-c2ccc(Cl)c(Cl)c2)n2c1CCC2 , if possible.
n

For COc1ccc(/C=C2\SC(=S)N(/C=C/c3nc4ccccc4[nH]c3=O)C2=O)cc1OC then?
y

Another molecule: O=CC=C(c1ccccc1)c1ccccc1
y

Next up: CC1(Cl)CC(O)C2(CC1Br)C1(C)OC1C1OC1(Br)C2(C)C (stereo not given)
n

----------
Task for the reader: assign each of the following molecules its reported growth inhibition.
Test: NCI Yeast Anticancer Drug Screen. Data for the bub3 strain (AID 167)
Conditions: S. cerevisiae bub3 mutant strain, at 3.7 µM, hits give high values
Protocol: Growth inhibition of yeast strains with defined genetic alterations is measured as a screen for potential anti-cancer activity. Selected strains with alterations in DNA damage repair or cell cycle control were exposed to compounds and growth inhibition was measured relative to vehicle treated controls. The strain used in this assay is bub3
About 79,000 compounds went through this panel and 15% of them were active in at least one assay; those are over-represented in the sample as a whole.
Answers are plain numbers, in %.

INSERT INTO measurements (molecule, value_observed) VALUES
  ('Cc1ccc(S/N=C\c2ccccc2O)cc1', -6),
  ('O=C(Nc1ccccc1)C(=O)C(C(=O)c1ccccc1)C(c1ccccc1)c1ccccc1 (stereo not given)', 0),
  ('CCCCCCCCCCCCCC[N+](C)(CC(=O)[O-])Cc1ccccc1 (stereo not given)', 10),
  ('CC(C)(CN1CCCCC1)C(=O)CC(SCCS(=O)(=O)O)c1ccc(Br)cc1 (stereo not given)', 6),
  ('S=C(Nc1ccc(Cl)c(Cl)c1)SCc1ccc2c(c1)OCO2', 29);

Can you give me growth inhibition for all of these, one by one?
1. COC1=CC(=O)C2C(C1=O)C(c1ccc(Cl)cc1)[C@@H]2C (stereo not given in full)
2. S=C(Nc1ccc(Cl)cc1)SC1CCCCC1
3. Cc1c(C2=C(Br)C(=O)N(C)C2=O)c(=O)n(C)c(=O)n1C
4. CC(C)/C(Cl)=N\OC(=O)Nc1cccc(Cl)c1

53
-36
4
4

growth inhibition for COc1cc2c(cc1[N+](=O)[O-])C(=O)C(Br)(Br)CCC2 ?
36
